experiment: Metabolic stability in human microsome measured at 60 min; assay type: ADME; conditions: microsomes, read-out: Stability
Metric name: remaining at 1 h (%)
Report only the number, with the unit % understood.

Find the measured remaining at 1 h of `CN(C)C1CCN(C(=O)c2cn(Cc3ccccc3)c3ccccc23)CC1` and report it. 95.7

###

test: Selectivity index, ratio of CC50 for cytotoxicity against human A549 cells to EC50 for antiviral activity against pseudotyped Marburgvirus Angola infected in human A549 cells assessed as inhibition of Pseudoviral entry; type: toxicity, cell-based; details: read-out: Ratio CC50/EC50
API: label(entry) gives condition met if the entry's selectivity ratio is strictly smaller than 7; on equality or larger values it gives condition not met.

Smiles representation: O=C(NCCCn1ccnc1)c1cc2occc2n1Cc1ccc(Cl)cc1
Label: condition not met
--
Smiles representation: CN(C)CCNC(=O)c1cc2occc2n1Cc1ccc(F)cc1
Label: condition not met
--
Smiles representation: CC(C)N1CCN(C(=O)c2cc3occc3n2Cc2cccc(C(F)(F)F)c2)CC1
Label: condition met
--
Smiles representation: CN(C)CCNC(=O)c1cc2occc2n1Cc1cccc(C(F)(F)F)c1
Label: condition not met
--
Smiles representation: COc1ccc(Cn2c(C(=O)N3CCC(N(C)C)CC3)cc3ccccc32)cc1
Label: condition not met

Report whether reported selectivity ratio is lower than 7 (strictly) for `CN(C)C1CCN(C(=O)c2cc3occc3n2Cc2ccc(Cl)cc2)CC1` condition met

Does the reported selectivity ratio of the following compound sit strictly below 7? `CN(C)CCNC(=O)c1cc2occc2n1Cc1ccccc1` condition met

Determine whether this compound shows selectivity ratio lower than 7 (ties excluded): `CN(C)CCNC(=O)c1cn(Cc2ccc(F)cc2)c2ccccc12` condition not met

Please indicate whether the reported selectivity ratio of `CN(C)C1CCN(C(=O)CN(Cc2ccccc2)c2ccccc2)CC1` is strictly below 7. condition met

This collection of values is drawn from ChEMBL document CHEMBL5576160.
